system: Xanthomonas campestris; test: Bactericidal activity against Xanthomonas campestris; assay type: functional
readoutKind: log10(MBC) (log10 of the value in µM)
All values: base-10 log of MBC in µM.

Solved entries (count: 3):
- compound: "CC(C)(C)c1cc(/C=C(/C(=O)c2ccc(Cl)cc2Cl)n2cncn2)cc(C(C)(C)C)c1O"
  log10(MBC): 1.23
- compound: "O=C(N[C@H](CO)[C@H](O)c1ccc([N+](=O)[O-])cc1)C(Cl)Cl"
  log10(MBC): -1.00
- compound: "CC1(C)S[C@@H]2[C@H](NC(=O)[C@H](N)c3ccccc3)C(=O)N2[C@H]1C(=O)O"
  log10(MBC): -0.70

Request: What does the data say about its log10(MBC)? Entry: `CN(C)c1ccc(/C=C(/C(=O)c2ccc(-c3ccccc3)cc2)n2cncn2)cc1`
Response: 0.71

Request: What does the data say about its log10(MBC)? Entry: `CC(C)CC(=O)/C(=C/c1ccc([N+](=O)[O-])cc1)n1cncn1`
Response: -0.10

Request: What does the data say about its log10(MBC)? Entry: `O=C(/C(=C/c1ccc([N+](=O)[O-])cc1)n1cncn1)c1ccc(Cl)cc1`
Response: 0.11
